- Measurement target: PDE1C (Homo sapiens (Human), UniProt Q14123)
- Sequence (Q14123 whole entry): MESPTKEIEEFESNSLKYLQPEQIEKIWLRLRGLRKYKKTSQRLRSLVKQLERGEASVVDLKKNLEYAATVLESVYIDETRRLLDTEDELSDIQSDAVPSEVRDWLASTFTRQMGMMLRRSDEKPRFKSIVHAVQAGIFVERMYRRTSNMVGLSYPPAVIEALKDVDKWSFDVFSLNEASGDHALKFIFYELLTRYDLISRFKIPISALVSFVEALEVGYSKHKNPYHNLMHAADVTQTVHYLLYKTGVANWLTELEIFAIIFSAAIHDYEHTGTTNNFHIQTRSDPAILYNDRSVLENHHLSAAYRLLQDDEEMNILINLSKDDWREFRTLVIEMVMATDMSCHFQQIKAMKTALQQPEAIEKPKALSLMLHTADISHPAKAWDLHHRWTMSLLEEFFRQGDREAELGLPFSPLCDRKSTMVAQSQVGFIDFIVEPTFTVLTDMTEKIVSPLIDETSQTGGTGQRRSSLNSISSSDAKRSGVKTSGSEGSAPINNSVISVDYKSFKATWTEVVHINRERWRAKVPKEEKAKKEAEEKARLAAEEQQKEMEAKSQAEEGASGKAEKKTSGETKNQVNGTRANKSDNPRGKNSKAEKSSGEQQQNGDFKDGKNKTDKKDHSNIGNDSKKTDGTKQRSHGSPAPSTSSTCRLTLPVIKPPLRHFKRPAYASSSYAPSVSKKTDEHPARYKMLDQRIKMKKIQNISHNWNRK
Known IC50 of a selection of compounds
Form entry: value (nM) — number only.

>  <Compound>
CCOc1cnccc1-c1cc(NCc2cnn(C)c2)c2c(n1)c(C)nn2C(C)C [Example 28b]

>  <Unit of measurement>
nM

>  <IC50>
33

$$$$

So what's the measured IC50 for this one? CCOc1nnccc1-c1cc(NCc2cccc3ocnc23)c2c(n1)c(C)nn2C(C)C [Example 13a] 93

Subsequent entry: CCOc1cnccc1-c1cc(NCc2cccnc2F)c2c(n1)c(C)nn2C(C)C [Example 17b] 37

====

Reported IC50, UniProt:Q14123.
Form entry: value (nM) — number only.

# count of solved cases: 3
>  <Compound>
CCOc1ncccc1-c1cc(NCc2cccc3oc(C)nc23)c2c(n1)c(C)nn2C(C)C [Example 11a]

>  <Measurement target>
UniProt:Q14123

>  <Measured attribute>
IC50

>  <Quantitative readout>
26

$$$$
>  <Compound>
CCOc1nnccc1-c1cc(NCc2cnc(C)s2)c2c(n1)c(C)nn2C(C)C [Example 20b]

>  <Measurement target>
UniProt:Q14123

>  <Measured attribute>
IC50

>  <Quantitative readout>
24

$$$$
>  <Compound>
CCOc1nnccc1-c1cc(NCc2cccnc2F)c2c(n1)c(C)nn2C(C)C [Example 16b]

>  <Measurement target>
UniProt:Q14123

>  <Measured attribute>
IC50

>  <Quantitative readout>
50

$$$$

Pending compound:
So what's the measured IC50 for this one? CCOc1cnccc1-c1cc(NCc2nnc(C)o2)c2c(n1)c(C)nn2C(C)C [Example 34b] 130

====

Reported IC50, UniProtKB Q01064.
Write the figure, then the unit, nothing else.

>  <Compound>
CCOc1ncccc1-c1cc(NCc2nccc3nccn23)c2c(n1)c(C)nn2C(C)C [Example 16a]

>  <IC50>
4 nM

$$$$

So what's the measured IC50 for this one? CCOc1ncccc1-c1cc(NCc2cccc3ncnn23)c2c(n1)c(C)nn2C(C)C 1.4 nM

Subsequent entry: CCOc1ncccc1-c1cc(NCc2cccc3ncoc23)c2c(n1)c(C)nn2C(C)C 5.3 nM

Subsequent entry: CCOc1cnccc1-c1cc(NCc2nnc(C)o2)c2c(n1)c(C)nn2C(C)C [Example 34b] 7 nM

Subsequent entry: CCOc1nnccc1-c1cc(NCc2ccn(C)n2)c2c(n1)c(C)nn2C(C)C 0.6 nM

====

Reported pIC50, PDE1C (Homo sapiens (Human)).
The meaning of pIC50 here: minus log10 of the concentration in molar units.

>  <Compound>
CCOc1nnccc1-c1cc(NCc2ncn(C)n2)c2c(n1)c(C)nn2C(C)C [Example 18b]

>  <Measurement target>
PDE1C (Homo sapiens (Human))

>  <Quantitative readout>
7.77

$$$$
>  <Compound>
CCOc1ncccc1-c1cc(NCc2cccn3nccc23)c2c(n1)c(C)nn2C(C)C [Example 5a]

>  <Measurement target>
PDE1C (Homo sapiens (Human))

>  <Quantitative readout>
7.02

$$$$
>  <Compound>
CCOc1cnccc1-c1cc(NCc2cccnc2OC)c2c(n1)c(C)nn2C(C)C [Example 30b]

>  <Measurement target>
PDE1C (Homo sapiens (Human))

>  <Quantitative readout>
7.19

$$$$

Pending compound:
So what's the measured pIC50 for this one? Cc1nc2cccc(-c3cc(NCc4cnn(C)c4)c4c(n3)c(C)nn4C(C)C)c2o1 [Example 36b] 7.55

====

Known IC50 of a selection of compounds
- Measurement target: PDE1A (Homo sapiens (Human), UniProt P54750)
- Sequence (P54750 whole entry): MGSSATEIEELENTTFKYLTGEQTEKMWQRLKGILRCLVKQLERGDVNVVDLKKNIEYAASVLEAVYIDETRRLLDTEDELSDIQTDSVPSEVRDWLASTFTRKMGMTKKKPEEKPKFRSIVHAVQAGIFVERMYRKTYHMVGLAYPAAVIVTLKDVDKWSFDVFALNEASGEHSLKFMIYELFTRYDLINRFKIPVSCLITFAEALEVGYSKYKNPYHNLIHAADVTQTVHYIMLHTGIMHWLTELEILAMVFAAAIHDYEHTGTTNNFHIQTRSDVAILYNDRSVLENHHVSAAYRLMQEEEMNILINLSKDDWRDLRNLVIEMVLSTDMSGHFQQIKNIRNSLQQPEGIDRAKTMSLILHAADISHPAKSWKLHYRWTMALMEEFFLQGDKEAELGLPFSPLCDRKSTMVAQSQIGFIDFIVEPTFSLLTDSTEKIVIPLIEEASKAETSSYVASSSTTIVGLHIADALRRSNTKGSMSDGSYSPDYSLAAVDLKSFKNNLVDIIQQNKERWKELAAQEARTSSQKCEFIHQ
Form entry: value (nM) — number only.

>  <Compound>
CCOc1nnccc1-c1cc(NCc2ncn(C)n2)c2c(n1)c(C)nn2C(C)C [Example 18b]

>  <Measurement target>
PDE1A (Homo sapiens (Human), UniProt P54750)

>  <IC50 / nM>
3.6

$$$$
>  <Compound>
Cc1nn(C(C)C)c2c(NCc3cnn(C)c3)cc(-c3cccc4ncoc34)nc12 [Example 37b]

>  <Measurement target>
PDE1A (Homo sapiens (Human), UniProt P54750)

>  <IC50 / nM>
16

$$$$
>  <Compound>
CCOc1nnccc1-c1cc(NCc2cnn(C)c2)c2c(n1)c(C)nn2C(C)C

>  <Measurement target>
PDE1A (Homo sapiens (Human), UniProt P54750)

>  <IC50 / nM>
6.1

$$$$
>  <Compound>
Cc1nc2c(-c3cc(NCc4cnn(C)c4)c4c(n3)c(C)nn4C(C)C)cccc2o1 [Example 35b]

>  <Measurement target>
PDE1A (Homo sapiens (Human), UniProt P54750)

>  <IC50 / nM>
39

$$$$
>  <Compound>
CCOc1cnccc1-c1cc(NCc2cnc(C)s2)c2c(n1)c(C)nn2C(C)C [Example 21b]

>  <Measurement target>
PDE1A (Homo sapiens (Human), UniProt P54750)

>  <IC50 / nM>
5.6

$$$$

Pending compound:
So what's the measured IC50 for this one? Cc1nn(C(C)C)c2c(NCc3cnn(C)c3)cc(-c3cccc4cn[nH]c34)nc12 [Example 39b] 140

====

Reported pIC50, PDE1C (Homo sapiens (Human), UniProt Q14123).
The meaning of pIC50 here: minus log10 of the concentration in molar units.

>  <Compound>
CCOc1nnccc1-c1cc(NCc2cnn(C)c2)c2c(n1)c(C)nn2C(C)CC (single isomer, unassigned) [Example 5b]

>  <pIC50>
6.99

$$$$

So what's the measured pIC50 for this one? CCOc1ncccc1-c1cc(NCc2cccc3ncoc23)c2c(n1)c(C)nn2C(C)C [Example 9a] 7.09

Subsequent entry: CCOc1cnccc1-c1cc(NCc2cccc(OC)n2)c2c(n1)c(C)nn2C(C)C [Example 25b] 7.28

====

Reported pIC50, PDE1B (Homo sapiens (Human), UniProt Q01064).
The meaning of pIC50 here: minus log10 of the concentration in molar units.

# count of solved cases: 10
>  <Molecule>
COc1nnccc1-c1cc(NCc2cnn(C)c2)c2c(n1)c(C)nn2C(C)C

>  <Measured attribute>
pIC50

>  <Quantitative readout>
8.09

$$$$
>  <Molecule>
CCOc1ncccc1-c1cc(NCc2nccc3nncn23)c2c(n1)c(C)nn2C(C)C [Example 15a]

>  <Measured attribute>
pIC50

>  <Quantitative readout>
8.32

$$$$
>  <Molecule>
CCOc1nnccc1-c1cc(NCc2ccccn2)c2c(n1)c(C)nn2C(C)C [Example 14b]

>  <Measured attribute>
pIC50

>  <Quantitative readout>
8.96

$$$$
>  <Molecule>
CCOc1cnccc1-c1cc(NCc2cc[nH]n2)c2c(n1)c(C)nn2C(C)C [Example 13b]

>  <Measured attribute>
pIC50

>  <Quantitative readout>
8.60

$$$$
>  <Molecule>
CCOc1ncccc1-c1cc(NCc2ccc3oc(C)nc3c2)c2c(n1)c(C)nn2C(C)C [Example 12a]

>  <Measured attribute>
pIC50

>  <Quantitative readout>
9.09

$$$$
>  <Molecule>
CCOc1ncccc1-c1cc(NCc2cccn3ccnc23)c2c(n1)c(C)nn2C(C)C

>  <Measured attribute>
pIC50

>  <Quantitative readout>
9.32

$$$$
>  <Molecule>
CCOc1nnccc1-c1cc(NCc2cccnc2OC)c2c(n1)c(C)nn2C(C)C

>  <Measured attribute>
pIC50

>  <Quantitative readout>
8.77

$$$$
>  <Molecule>
CCOc1nnccc1-c1cc(NCc2nccc(C)n2)c2c(n1)c(C)nn2C(C)C [Example 11b]

>  <Measured attribute>
pIC50

>  <Quantitative readout>
8.36

$$$$
>  <Molecule>
CCOc1ncccc1-c1cc(NCc2cccn3cnnc23)c2c(n1)c(C)nn2C(C)C

>  <Measured attribute>
pIC50

>  <Quantitative readout>
9.49

$$$$
>  <Molecule>
CCOc1nnccc1-c1cc(NCc2nnc(C)o2)c2c(n1)c(C)nn2C(C)C

>  <Measured attribute>
pIC50

>  <Quantitative readout>
7.85

$$$$

So what's the measured pIC50 for this one? CCOc1nnccc1-c1cc(NCc2cc(C)[nH]n2)c2c(n1)c(C)nn2C(C)C [Example 22b] 9.40

Subsequent entry: CCOc1cnccc1-c1cc(NCc2ncn(C)n2)c2c(n1)c(C)nn2C(C)C [Example 19b] 9.04

Subsequent entry: CCOc1nnccc1-c1cc(NCc2cnn(C)c2)c2c(n1)c(C)nn2C(C)C 8.96

Subsequent entry: CCOc1ncccc1-c1cc(NCc2cccc3nsnc23)c2c(n1)c(C)nn2C(C)C 8.47

Subsequent entry: CCOc1cnccc1-c1cc(NCc2cnn(C)c2)c2c(n1)c(C)nn2C(C)CC (single isomer, unassigned) [Example 32b] 8.11

Subsequent entry: COc1cnccc1-c1cc(NCc2cnn(C)c2)c2c(n1)c(C)nn2C(C)C [Example 29b] 8.31

Subsequent entry: CCOc1cnccc1-c1cc(NCc2cccnc2OC)c2c(n1)c(C)nn2C(C)C [Example 30b] 8.57

Subsequent entry: CCOc1nnccc1-c1cc(NCc2ncc(F)cn2)c2c(n1)c(C)nn2C(C)C [Example 10b] 8.62

Subsequent entry: CCOc1cnccc1-c1cc(NCc2cccc(F)n2)c2c(n1)c(C)nn2C(C)C [Example 12b] 8.96

Subsequent entry: CCOc1cnccc1-c1cc(NCc2ccccn2)c2c(n1)c(C)nn2C(C)C [Example 15b] 8.85

Subsequent entry: CCOc1nnccc1-c1cc(NCc2ncn(C)n2)c2c(n1)c(C)nn2C(C)C [Example 18b] 9.23

Subsequent entry: Cc1nn(C(C)C)c2c(NCc3cnn(C)c3)cc(-c3cccc4ncoc34)nc12 [Example 37b] 8.62

Subsequent entry: CCOc1nnccc1-c1cc(NCc2cccnc2F)c2c(n1)c(C)nn2C(C)C [Example 16b] 8.47

Subsequent entry: CCOc1nnccc1-c1cc(NCc2cnn(C)c2)c2c(n1)c(C)nn2C(C)CC (single isomer, unassigned) 8.21

Subsequent entry: Cc1nn(C(C)C)c2c(NCc3cnn(C)c3)cc(-c3cccc4cc[nH]c34)nc12 [Example 38b] 7.00

Subsequent entry: CCOc1ncccc1-c1cc(NCc2cccn3nccc23)c2c(n1)c(C)nn2C(C)C 8.15

Subsequent entry: CCOc1nnccc1-c1cc(NCc2cccc3oc(C)nc23)c2c(n1)c(C)nn2C(C)C [Example 14a] 9.68

Subsequent entry: CCOc1cnccc1-c1cc(NCc2cc(C)[nH]n2)c2c(n1)c(C)nn2C(C)C [Example 23b] 9.26

Data provenance: patent US10766893B2
